# experimental-protocol: S. cerevisiae RM11-1a growth modifiers, primary screen, strain RM11-1a, OD600, basal, 24 h (AID 1177);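 note: cultures grown under basal conditions with no added stressor; test concentration not given here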
# conditions: OD600, 24 h, higher = more signal, called active from +8 up or from −8 down
The following compounds are shown together with reported z-score values.
Reply briefly: the number, and no unit.

Consider the following illustrative entries.
[
  {
    "smiles-data": "CC(C)(C)OC(=O)CC[C@@]1(C(=O)N2CCOCC2)N=C(c2ccc(OCCCO)cc2)O[C@@H]1c1ccccc1",
    "z-score": 0.732
  },
  {
    "smiles-data": "COCCCN1C(=O)[C@@]2(Cc3ccccc31)c1ccccc1C(=O)N(Cc1ccccc1Cl)[C@H]2c1ccc(CO)cc1",
    "z-score": -0.921
  },
  {
    "smiles-data": "C=C(COC)C(=O)CC[C@H](OC(=O)c1ccccc1-c1ccccc1C(=O)O)c1ccccc1OCCO",
    "z-score": -0.524
  }
]

Here is another compound to look at.
I'd like to know its z-score. The compound in question is CCCNC(=O)[C@@H]1c2ccccc2C(=O)N(Cc2cc(C(F)(F)F)cc(C(F)(F)F)c2)[C@H]1c1ccc(CO)cc1 0.288

The values you see were collected from PubChem BioAssay.
